Tested on: Ba/F3 P210-BCR-ABL1 RUNX1-/mut (mouse)
protocol.details: drug sensitivity score (DSS) (DSS score); higher = more sensitive (stronger growth inhibition); extreme values may be limits of the assay
Binary classification by drug sensitivity score, with 4 as an inclusive lower bound for Yes; all other cases are No.

- compound: "O[C@H](C[C@H]1c2c(F)cccc2-c2cncn21)[C@H]1CC[C@H](O)CC1 [GDC-0919]"
  category: "No"
- compound: "Nc1ccccc1NC(=O)c1ccc(CNC(=O)OCc2cccnc2)cc1 [Entinostat]"
  category: "Yes"
- compound: "c1cn2cc(-c3ccc4cn[nH]c4c3)nc(Nc3ccc(N4CCOCC4)cc3)c2n1 [Entospletinib]"
  category: "No"

State whether the measured drug sensitivity score reaches 4, counting equality as reaching it, for C[C@@H](Oc1cc(-c2cnn(C3CCNCC3)c2)cnc1N)c1c(Cl)ccc(F)c1Cl [Crizotinib] No

State whether the measured drug sensitivity score reaches 4, counting equality as reaching it, for CN(C)CCOc1ccc(/C(=C(/CCCl)c2ccccc2)c2ccccc2)cc1 [Toremifene] Yes

State whether the measured drug sensitivity score reaches 4, counting equality as reaching it, for Cn1nnc2c(C(N)=O)ncn2c1=O [Temozolomide] No

State whether the measured drug sensitivity score reaches 4, counting equality as reaching it, for CO[C@@H]1[C@H](N(C)C(=O)c2ccccc2)C[C@H]2O[C@]1(C)n1c3ccccc3c3c4c(c5c6ccccc6n2c5c31)C(=O)NC4 [Midostaurin] Yes

State whether the measured drug sensitivity score reaches 4, counting equality as reaching it, for O=C(NOCCO)c1ccc2cncn2c1Nc1ccc(I)cc1F [GDC-0623] No
